Origin of the recorded values: the supplement of paper PMC12764529

MEASUREMENT DESCRIPTION: folding stability dG unfold (combined trypsin and chymotrypsin); higher = more stable
PROPERTY NAME: folding stability dG unfold

# SEQUENCE, MEASUREMENT
measured = [
    ("SAGGSAGGSAYFVRIDNGPTIPIPGMSPDEAKEQLKEYLPPPNKENLKITDVYSPDNGKPLSAGGSAGGSAG [r3_340_TrROS]", "< -1 kcal/mol"),
    ("SAGGSPPLVVEEELLSEKTLPEPGTGTVTLTRRTIRDPTADVEWEERFTVTTPPDGSVEVSSTRERLLSAGG [r13_917_JUSTAS]", "< -1 kcal/mol"),
    ("SAGGVPVPPEVEYPISPEAVELAEKLAPELGAKNFKVTVVSVEPGYITVEITLPDTGKTVTVTIPLGSAGGS [r16_281_JUSTAS]", "1.82 kcal/mol"),
    ("SAGGSAKPVIVKIHFPNMKPEKILELAKEFGAVPLKMDPNKGVAIVLATEEKVEEIAAKGNFKIEASAGGSA [r15_731_TrMRF]", "0.515 kcal/mol"),
    ("SAGGSAGGSAFTIHDLKLNKVEVHPDGTVTYHLEVTLPSGEKLKVVVLVDPRKPSLATFYFSSAGGSAGGSA [r18_97_TrMRF]", "2.94 kcal/mol"),
]

Given the sequence SAGGMELLGEVTVEKPGKPITFPIYRVPDEPREVVEVRELDPSTGKWTPIGTRELPPGEAERAIEELSAGGS [r8_423_JUSTAS] , what is its reported folding stability dG unfold?
0.544 kcal/mol

Given the sequence SAGGSAGGSAGGEEKEVYLVRFRRPDGSEVTVVAPWEDLEEIVKSLPEAVEVEVEKAPLSAGGSAGGSAGGS [r10_437_TrMRF] , what is its reported folding stability dG unfold?
1.98 kcal/mol

* * *

MEASUREMENT DESCRIPTION: folding stability dG unfold from chymotrypsin proteolysis; higher = more stable
Please enter 1 where folding stability dG unfold is greater than or equal to 0.6 kcal/mol, and 0 where it is lower.

# SEQUENCE, ASSIGNED LABEL
records = [
    ("SAGGSAGGSAGMVIEVGGKKVTIEKNEDGSLKITVTDKNGKKKEITIPGMSLEEILKALKSAGGSAGGSAGG [r11_934_TrROS_Hall]", 1),
    ("SAGGSAGGSAGMVIEDPSGVTTVVTFDTSVPVVTTTTLTKDPNSNNYTTTTTTTPVTVPVSAGGSAGGSAGG [r17_491_JUSTAS]", 1),
    ("SAGGSASSMTTTKKLSTGEKSVVELSTSPSTVTLVTTDPETGTVTVTTYTPSGTGPVATTTTVPAPSAGGSA [r15_137_JUSTAS]", 0),
]

Record SAGGSAGGSAGPIDPNSTRPVPADYVVIRIRGDEKPRYFVVHPEYAKEFAERHGAELYYESAGGSAGGSAGG [r17_109_TrMRF] ; criterion: folding stability dG unfold no lower than 0.6 kcal/mol. Met?
0

Record STLPPGATRTFEFTDPATGKKITVTLTRLPDGTVRVTLTTTDPATGKTTTETFTLPGETLEALLALVEESSA [r9_618_JUSTAS] ; criterion: folding stability dG unfold no lower than 0.6 kcal/mol. Met?
1

Record SAGGSAGGSARITVTPEGGYWRVTIKGPGKTRTFQFPMPANEAEEIVEELQNPPIDIDVEPVSAGGSAGGSA [r18_103_TrROS] ; criterion: folding stability dG unfold no lower than 0.6 kcal/mol. Met?
0

Record SAGGSAGGSAGNKDYPVIEVTYPFPPGAPASDIKDFAEPFGFESIEFDDNGTVKVYFYLPSAGGSAGGSAGG [r11_961_TrROS] ; criterion: folding stability dG unfold no lower than 0.6 kcal/mol. Met?
1
